This collection of values is drawn from patent US20230321100A1.

ASSAYED SYSTEM: CD73 (Calu-6 cells) (Homo sapiens)
Construct: endogenous in cells
ASSAY INFO: Enzymatic activity detection at the cellular level (Calu-6 cells, AMP substrate, Cell-titer Glo luminescence)
CONDITIONS USED: enzymatic IC50 at the Calu-6 cell level, 30 min pre-incubation, 120 min at 37° C.

| MOLECULE | ASSAYED SYSTEM | READING UNIT | IC50 |
| --- | --- | --- | --- |
| Cc1nnc(-c2c[nH]c(=O)[nH]c2=O)cc1[C@H]1C[C@@H]1/C=C/c1ccccc1 [Compound 16] | CD73 (Calu-6 cells) (Homo sapiens) | nM | 2.3 |
| Cc1nnc(-c2c[nH]c(=O)[nH]c2=O)cc1C1CC1Cc1ccccc1 (stereo not shown) [Compound D2, reference compound] | CD73 (Calu-6 cells) (Homo sapiens) | nM | 114 |
| O=c1[nH]cc(-c2cc(C3CC3c3ccc(F)c(C(F)(F)F)c3)c(Cl)nn2)c(=O)[nH]1 (stereo not shown) [Compound 69] | CD73 (Calu-6 cells) (Homo sapiens) | nM | 13.4 |
| O=c1[nH]cc(-c2cc([C@@H]3C[C@H]3c3ccccc3)c(Cl)nn2)c(=O)[nH]1 [Compound D3, reference compound] | CD73 (Calu-6 cells) (Homo sapiens) | nM | 1430 |
| Cc1nnc(-c2c[nH]c(=O)[nH]c2=O)cc1[C@H]1C[C@@H]1/C=C/C#N [Compound 10] | CD73 (Calu-6 cells) (Homo sapiens) | nM | 31 |
| N#Cc1nnc(-c2c[nH]c(=O)[nH]c2=O)cc1C1CC1c1ccc(Cl)cc1 (stereo not shown) [Compound 36] | CD73 (Calu-6 cells) (Homo sapiens) | nM | 1.9 |
| COc1nnc(-c2c[nH]c(=O)[nH]c2=O)cc1[C@H]1C[C@@H]1/C=C/c1ccccc1 [Compound 20] | CD73 (Calu-6 cells) (Homo sapiens) | nM | 1.2 |

----------
ASSAYED SYSTEM: CD73 (Calu-6 cells) (Homo sapiens)
Construct: endogenous in cells
Sequence (P21589 27-549): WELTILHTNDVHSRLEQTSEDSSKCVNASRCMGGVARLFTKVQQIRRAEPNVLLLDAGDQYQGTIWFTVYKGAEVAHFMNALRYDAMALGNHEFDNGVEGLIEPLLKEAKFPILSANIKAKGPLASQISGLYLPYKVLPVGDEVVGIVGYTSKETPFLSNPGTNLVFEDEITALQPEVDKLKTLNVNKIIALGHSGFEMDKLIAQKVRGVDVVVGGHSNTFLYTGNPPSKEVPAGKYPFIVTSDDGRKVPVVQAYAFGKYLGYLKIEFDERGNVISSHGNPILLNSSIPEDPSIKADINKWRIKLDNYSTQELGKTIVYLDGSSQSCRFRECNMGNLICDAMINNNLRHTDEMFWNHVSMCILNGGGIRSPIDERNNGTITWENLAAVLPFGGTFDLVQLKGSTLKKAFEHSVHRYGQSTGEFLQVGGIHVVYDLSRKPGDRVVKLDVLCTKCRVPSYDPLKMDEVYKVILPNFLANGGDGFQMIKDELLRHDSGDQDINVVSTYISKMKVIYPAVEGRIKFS
ASSAY INFO: Enzymatic activity detection at the cellular level (Calu-6 cells, AMP substrate, Cell-titer Glo luminescence)
CONDITIONS USED: enzymatic IC50 at the Calu-6 cell level, 30 min pre-incubation, 120 min at 37° C.
Method: The Calu-6 cells were digested and re-suspended using TM buffer (25 mM Tris, 5 mM MgCl2, pH 7.5). Calu-6 cell suspension was seeded into 96 well cell culture plate, and the number of cells per well was 2.5×10^4, adding volume of 100 μL/well. […] The luminescence value was read by the multi-function enzymatic reader and converted into the inhibition percentage: Inhibition percentage=(1−reading/Max)*100. […]
Reported IC50 values for a set of compounds

| COMPOUND | READING UNIT | IC50 |
| --- | --- | --- |
| N#Cc1nnc(-c2c[nH]c(=O)[nH]c2=O)cc1[C@H]1C[C@@H]1C#Cc1ccccn1 | nM | 19.4 |
| C=C[C@H]1C[C@@H]1c1cc(-c2c[nH]c(=O)[nH]c2=O)nnc1C | nM | 21 |
| Cc1ccc(C2CC2c2cc(-c3c[nH]c(=O)[nH]c3=O)nnc2Cl)cc1C (centres unmarked) | nM | 5.6 |
| O=Cc1ccc(C2CC2c2cc(-c3c[nH]c(=O)[nH]c3=O)nnc2Cl)cc1 (centres unmarked) | nM | 2.7 |
| O=c1[nH]cc(-c2cc([C@H]3C[C@@H]3C#Cc3ccc(Cl)cc3)c(Cl)nn2)c(=O)[nH]1 | nM | 7.8 |
| Cc1ccc(C2CC2c2cc(-c3c[nH]c(=O)[nH]c3=O)nnc2Cl)c(C)c1 (centres unmarked) | nM | 19 |
| O=c1[nH]cc(-c2cc([C@H]3C[C@@H]3c3ccccc3)cnn2)c(=O)[nH]1 | nM | 9.9 |
| CC(C)c1ccc(C2CC2c2cc(-c3c[nH]c(=O)[nH]c3=O)nnc2Cl)cc1 (centres unmarked) | nM | 22.3 |
